test-parameters: in acetone, 318.15 K
readout-label: solubility (mole fraction)
Give the figure only, with no unit attached.

Read off the recorded solubility (mole fraction) for O.O=C1NC(=O)C(=O)C(=O)N1
0.0146

###

test-parameters: in water, 313.15 K
readout-label: solubility (mole fraction)
Quick one: just the number, no unit, thanks!

In one line, give reported solubility (mole fraction) of the entry O.O=C1NC(=O)C(=O)C(=O)N1 .
0.0482

###

test-parameters: in ethylene glycol, 298.15 K
readout-label: solubility (mole fraction)
Field format: numeric only.

Give the reported solubility (mole fraction) for this molecule. O.O=C1NC(=O)C(=O)C(=O)N1
0.0143

###

test-parameters: in ethylene glycol, 308.15 K
readout-label: solubility (mole fraction)
Please reply with the value in numeric form only.

Read the entry O.O=C1NC(=O)C(=O)C(=O)N1 and write its reported solubility (mole fraction).
0.0206

###

test-parameters: in methanol, 318.15 K
readout-label: solubility (mole fraction)
Keep the answer to the number alone.

Please list solubility (mole fraction) recorded for the compound O.O=C1NC(=O)C(=O)C(=O)N1
0.168

###

test-parameters: in water, 318.15 K
readout-label: solubility (mole fraction)

Given the compound O.O=C1NC(=O)C(=O)C(=O)N1 , write its reported solubility (mole fraction).
0.051

###

test-parameters: in THF, 318.15 K
readout-label: solubility (mole fraction)
Answer as a number with no unit attached.

Give the reported value of solubility (mole fraction) for this record: O.O=C1NC(=O)C(=O)C(=O)N1
0.0954

###

test-parameters: in methanol, 308.15 K
readout-label: solubility (mole fraction)
Would you mind answering with just the numeric figure?

Supply solubility (mole fraction) value. Item: O.O=C1NC(=O)C(=O)C(=O)N1
0.142

###

test-parameters: in ethylene glycol, 313.15 K
readout-label: solubility (mole fraction)

Supply reported solubility (mole fraction) belonging to this molecule: O.O=C1NC(=O)C(=O)C(=O)N1
0.024

###

test-parameters: in ethanol, 308.15 K
readout-label: solubility (mole fraction)
I'd appreciate a reply containing only the number, no unit.

Supply reported solubility (mole fraction) belonging to this molecule: O.O=C1NC(=O)C(=O)C(=O)N1
0.119
